assay: Permeability Papp (AB) MDR1/MDCKII; conditions: In vitro MDR1-MDCKII permeability, A to B, mean
Recorded Metric: papp_a_to_b_mean (×10⁻⁶ cm/s)
Provide only the numeric value, understood in ×10⁻⁶ cm/s.

Examples with answers:
Molecule: CNCc1cc(-c2cc3c(N[C@H](c4ccc5c(c4)S(=O)(=O)CCC5)C(C)C)ncnc3[nH]2)co1 (single isomer, unassigned)
papp_a_to_b_mean (×10⁻⁶ cm/s): 0.483
//
Molecule: Cn1ncc(-c2cc3c(N[C@@H](c4ccc5c(c4)OCCO5)C(C)(C)C)ncnc3[nH]2)c1C#N (racemic)
papp_a_to_b_mean (×10⁻⁶ cm/s): 2.79
//
Molecule: COc1ccc([C@H](CC(=O)O)NC(=O)c2ncnc3[nH]ccc23)cc1 (racemic)
papp_a_to_b_mean (×10⁻⁶ cm/s): 1.7

Kindly review the next molecule as well.
Sample CC(C)[C@@H](Nc1ncnc2[nH]cc(C(=O)NC3CC3)c12)c1ccc2c(c1)S(=O)(=O)CCC2 ; papp_a_to_b_mean observed: 2.97

---

assay: Hepatic microsomal stability, MLM; format: in vitro ADME; conditions: In vitro mouse liver microsomal stability, no cofactor
Entries and their perc_remaining_no_cofactor
Return type: number; implicit unit %.

Worked cases, perc_remaining_no_cofactor given:
Compound: CC(C)[C@H](Nc1ncnc(N)c1Cl)c1ccc2c(c1)S(=O)(=O)CCC2 (racemic)
perc_remaining_no_cofactor, %: 102.0

Compound: CC(C)[C@H](Nc1ncnc2[nH]ccc12)c1ccc2c(c1)S(=O)(=O)CCC2
perc_remaining_no_cofactor, %: 104.0

Compound: CC(C)[C@@H](Nc1ncnc2[nH]ccc12)c1ccc2c(c1)S(=O)(=O)CCC2 (single isomer, unassigned)
perc_remaining_no_cofactor, %: 117.0

Documented perc_remaining_no_cofactor of CC(C)[C@H](Nc1ncnc2[nH]cc(C(N)=O)c12)c1ccc2c(c1)OCCO2 (racemic) : 98.0

---

# perc_remaining_no_cofactor per entry
test: Hepatic microsomal stability, MLM; type: in vitro ADME; conditions: In vitro mouse liver microsomal stability, no cofactor
Please respond with the number in % and leave the unit unwritten.

Field: example entries. Status: answers known.
Molecule: CNC(=O)c1c[nH]c2ncnc(N[C@@H](c3ccc4c(c3)S(=O)(=O)CCC4)C(C)C)c12 [ASAP-0011156]
perc_remaining_no_cofactor, %: 108.0

Molecule: CC(C)[C@H](Nc1ncnc2[nH]c(-c3cnn(CC(N)=O)c3)cc12)c1ccc2c(c1)OCCO2 (single isomer, unassigned) [ASAP-0008450]
perc_remaining_no_cofactor, %: 98.0

So, CC(C)[C@@H](Nc1ncnc2[nH]c(-c3cnn(CC(N)=O)c3)cc12)c1ccc2c(n1)OCCO2 [ASAP-0008646] ? Its perc_remaining_no_cofactor was 104.0

// sample CC(C)(C)[C@H](Nc1ncnc2[nH]c(-c3cnn(CC(N)=O)c3)cc12)c1ccc2c(n1)OCCO2 (single isomer, unassigned) [ASAP-0011159] , its perc_remaining_no_cofactor was 116.0

// perc_remaining_no_cofactor lookup, molecule = CC(C)[C@@H](Nc1ncnc2[nH]c(-c3cncc(S(C)(=O)=O)c3)cc12)c1ccc2c(c1)S(=O)(=O)CCC2 [ASAP-0012320] , result: 112.0

Summary for this molecule, CC(C)(C)[C@H](Nc1ncnc2[nH]c(-c3cnn(CC(N)=O)c3)cc12)c1ccc2c(c1)OCCO2 (single isomer, unassigned) [ASAP-0012330] : perc_remaining_no_cofactor is 105.0

---

test system: HeLa-ACE2 cells; settings: HeLa-ACE2 cytotoxicity; lowest measured response of the dose series
Collected perc_min_measured values appear next to each entry.
Entry rule: numbers only, all in %.

Recorded perc_min_measured, per entry:
Molecule: CC(C)[C@@H](Nc1ncnc2[nH]c(-c3ccc4cncn4c3)cc12)c1ccc2c(c1)S(=O)(=O)CCC2
Target Of Assay: HeLa-ACE2 cells
Experimental Result: 81.968
--
Molecule: CNCc1cc(-c2cc3c(N[C@H](c4ccc5c(c4)S(=O)(=O)CCC5)C(C)C)ncnc3[nH]2)co1 (single isomer, unassigned)
Target Of Assay: HeLa-ACE2 cells
Experimental Result: 86.562
--
Molecule: CC(C)[C@@H](Nc1ncnc2[nH]c(-c3cncc(S(C)(=O)=O)c3)cc12)c1ccc2c(c1)S(=O)(=O)CCC2
Target Of Assay: HeLa-ACE2 cells
Experimental Result: 93.918

Field perc_min_measured (entry CC(C)C(Nc1ncnc2[nH]c(C(=O)NC3CCN(C)C3)cc12)c1ccc2c(c1)S(=O)(=O)CCC2 (stereo not shown) ) reads 90.706

---

assay: Hepatic microsomal stability, HLM; format: in vitro ADME, human; settings: In vitro human liver microsomal stability
Quick reference: t_half of the listed items.
Lab book: enter the figure in min, no units written.

The examples below pair each entry with its known result.
Molecule: CC(C)[C@H](Nc1ncnc2[nH]c(-c3cnn(CC(=O)N(C)C)c3)cc12)c1ccc2c(c1)OCCO2 (single isomer, unassigned) [ASAP-0013837]
Experimental Result: 15.4

Molecule: CC(C)C(Nc1ncnc2[nH]ccc12)c1ccc2c(c1)S(=O)(=O)CCC2 (stereo not shown)
Experimental Result: 44.7

Molecule: CNC(=O)c1c[nH]c2ncnc(N[C@H](c3ccc4c(c3)S(=O)(=O)CCC4)C(C)C)c12 (single isomer, unassigned) [ASAP-0011153]
Experimental Result: 6.5

Molecule: O=C(Nc1cccc2c(C(=O)N[C@H]3c4ccccc4C[C@H]3C(=O)O)c[nH]c12)NC1CC1 (racemic)
Experimental Result: 279.8

Molecule: CCNC(=O)c1cc2c(NC(c3ccc4c(c3)S(=O)(=O)CCC4)C(C)C)ncnc2[nH]1 (stereo not shown)
Experimental Result: 1.9

Looking up CNC(=O)c1c[nH]c2ncnc(N[C@@H](c3ccc4c(c3)S(=O)(=O)CCC4)C(C)C)c12 , I see its t_half listed as 15.4

Quick note, t_half for CC(C)[C@H](Nc1ncnc2[nH]c(-c3cnn(CC(N)=O)c3)cc12)c1ccc2c(c1)NC(=O)CO2 (racemic) landed at 99.2

---

assay: Hepatic microsomal stability, HLM; type: in vitro ADME, human; settings: In vitro human liver microsomal stability
Recorded Metric: t_half
Please format your answer as a value with the unit trailing.

Example compounds with recorded t_half:
Compound: CC(C)[C@@H](Nc1ncnc2[nH]c(-c3cnn(CC(N)=O)c3)cc12)c1ccc2c(c1)S(=O)(=O)CCC2 [ASAP-0011432]
Experimental Result: 14.5 min

Compound: CC(C)[C@@H](Nc1ncnc2[nH]c(-c3cnn(C)c3)cc12)c1ccc2c(c1)S(=O)(=O)NCC2 [ASAP-0011192]
Experimental Result: 13.9 min

Compound: CC(C)[C@@H](Nc1ncnc2[nH]ccc12)c1ccc2c(c1)S(=O)(=O)CCC2 (single isomer, unassigned) [ASAP-0008676]
Experimental Result: 78.6 min

Compound: CC(C)[C@@H](Nc1ncnc2[nH]c(-c3cnn(CC(N)=O)c3)cc12)c1ccc2c(n1)OCCO2 (single isomer, unassigned) [ASAP-0012315]
Experimental Result: 91.8 min

Compound: CC(C)[C@H](Nc1ncnc2[nH]c(-c3cnn(C)c3C#N)cc12)c1ccc2c(c1)NC(=O)CO2 (single isomer, unassigned) [ASAP-0013256]
Experimental Result: 32.3 min

For this compound ( CNC(=O)Cn1cc(-c2cc3c(NC(c4ccc5c(c4)OCCO5)C(C)C)ncnc3[nH]2)cn1 (stereo not drawn) [ASAP-0008565] ), measured t_half is 14.0 min

---

perc_inhibition_mean values, listed per item
target: UniProt P0DTD1; assay: biochemical; assay type: biochemical; details: SARS-CoV-2 nsp3 macrodomain TR-FRET single point; concentration 99.5 uM
Form entry: value (%) — number only.

Examples with answers:
Input Smiles: CC(C)[C@@H](Nc1ncnc2[nH]ccc12)C(=O)N(C)Cc1nnc2n1CCC2
Target Of Assay: UniProt P0DTD1
Unit Descriptor: %
perc_inhibition_mean: -6.138
--
Input Smiles: Cc1cc(N)ncc1C(=O)N1CCC(c2ccn3ncc(C(=O)N4CCCCC4)c3c2)CC1
Target Of Assay: UniProt P0DTD1
Unit Descriptor: %
perc_inhibition_mean: 32.615
--
Input Smiles: Cn1cc([C@@H](Nc2ncnc3[nH]ccc23)C2CCC2)cn1
Target Of Assay: UniProt P0DTD1
Unit Descriptor: %
perc_inhibition_mean: 91.032

Cc1cc(CNC(=O)c2cnn3ccc(C4CCN(C(=O)c5ccccc5)CC4)cc23)n(C)n1 yielded perc_inhibition_mean of -8.125

---

Listing: CC50 at 24 h of selected compounds
test: in vitro; conditions: human, hela-ace2 cells, 50.0

The cases that follow already have their CC50 at 24 h on record.
Compound: CC(C)[C@@H](Nc1ncnc2[nH]c(-c3cnn(CC(=O)N(C)C)c3)cc12)c1ccc2c(c1)S(=O)(=O)CCC2 (racemic)
Experimental Result: > 20 µM
//
Compound: CC(C)[C@@H](Nc1ncnc2[nH]c(-c3cnn(C)n3)cc12)c1ccc2c(c1)OCCO2
Experimental Result: > 20 µM

Please look at the following compound next.
CC50 at 24 h for CC(C)[C@H](Nc1ncnc2[nH]c(-c3cnn(C)c3C#N)cc12)c1ccc2c(n1)NC(=O)CO2 (single isomer, unassigned) is > 20 µM
